Listed below: apparent KD of MS2 coat protein values for each entry.
Test system: MS2 coat protein
method_notes: apparent KD of MS2 coat protein; higher = weaker reporter binding
applied_conditions: Eterna round: R107; input ligand: none

sequence_input	apparent KD of MS2 coat protein [nM]
CGAAAGCAGUGAUCCAGCUUUCGCCUGGAAGGAGCGAGCGAAAGCUCAGGUAGGUCGCCAGAAACAUGAGGAUCACCCAUGUAAU [(A)''-(M)'-(A)'-(Arg1)-(Arg2)-(M1)-(M2)_Design8]	65.4
GGACUAACCAGAAGGAGCGACACGCAGAAACUGCAAAUUCCUCCACACGAGGAUCACCCGUGUCAGGUAGGUCGCUGGUUAGUCG	24
AGACUGUCUUCGGACAGUCCGGACAGCCCGCGAGGACCGGUACGGCCGCCACUCGCACGAGGAUCACCCGUGUGAGGCUGUCCGA [Omei Tryp A Exc A v2]	13.4
GGACUAACCAGAAGGAGCGGCACGCAGAAACUGCAAAUUCCUCCACACGAGGAUCACCCGUGUCAGGUAGGUCGCUGGUUAGUCG	21.5
UGGCAGUACAUGGGUUACUGCCAAGGUGAUACCAGCAUCGAAAGAUGCCCUUGGCAGCACCAACAUGAGGAUCACCCAUGUAAUA [(MT)''-(M)'-(T')-(Theo)-(Ms2)_Design1/22_8]	234
AUGACUUACGGGCGCCAUUUGUAAUAGGAAGGAGCGGCGAGAUAGCCAGGUAGGUCGCCUAUACAUGAGGAUCACCCAUGUCACC [Vegeorbe]	120

----------
Listed below: apparent KD of MS2 coat protein values for each entry.
Test system: MS2 coat protein
method_notes: apparent KD of MS2 coat protein; designed switch direction (-1 OFF switch, 1 ON switch): 1; higher = weaker reporter binding
applied_conditions: input ligand: microRNA oligo, concentration not stated

sequence_input	apparent KD of MS2 coat protein
UAGUUUUAGCGAGGAUAUCGUAUGUUUAAUUUUUUAUAUUGUUUACAUGAGGAUCACCCAUGUUACGAGAAGGCGCAUGGGAUU [JR_SSNG2_Sub080] (Eterna round: R96, puzzle: Same State NG 2)	273 nM
GCGAAAUGAUGAAACAUGAGGAUCACCCAUGUAACGAGAGAUGAGGAUAUCGGAAAGGGAGGAACCGAGAAGGCAUGGUCACGC [AK SSNG3-V2-26.1] (Eterna round: R96, puzzle: Same State NG 3)	37.1 nM
AAAAGAAACAUGUACCUGAGUACAUGAAAACAUGAGGAUCACCCAUGUAACAAGUUGGGUGUUUGUCUUAUAAGAAA [JL pocket 5] (Eterna round: R96, puzzle: Sensor for hsa-mir-208a)	238 nM

----------
Listed below: apparent KD of K4 kissing-loop reporter values for each entry.
Test system: K4 kissing-loop RNA reporter;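 note: bound reporter read as fluorescence of individual clusters on recovered sequencing chips by microscopy, with normalized cluster intensities fitted with a binding model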
method_notes: apparent KD of K4 kissing-loop reporter; higher = weaker reporter binding
applied_conditions: Eterna round: R107; input ligand: arginine 13.2 mM

sequence_input	tested_system	apparent KD of K4 kissing-loop reporter [µM]
GGCACGUUCCCUUGAUCAGUGAUGUUGUUUCGAGGACCGGUACGGCCGCCACUCGCUCGGCGUUCGCCCAGGCCCGGAAAACUGC [theeternabot_exclusion_KL_Trp_A_13]	K4 kissing-loop RNA reporter	0.207
UGAUAGGACAGAAGGAGCGGGAGUGAUGUUCCCAAGGAUUGGUCUAGCAAAGCUGGACCCUCCCAGGUAGGUCGCUGUCCUAUCU [ArgBX 5 #SwitchBubble #StaticStem]	K4 kissing-loop RNA reporter	0.223
UUAUAUUUUAUAUUUAGAUGAUCUAUAGCACGAGGACCGGUACGGCCGCCACUCGAGUGAUGUUCGAGAGCUAUAGAUCAUCAUU [AK2.2 EXC Tryptophan A]	K4 kissing-loop RNA reporter	0.132
